Source: ChEMBL document CHEMBL3988442

biological target: Aspartate--tRNA(Asp/Asn) ligase (Mycobacterium tuberculosis (strain ATCC 25618 / H37Rv)) (UniProt P9WFW3); test: Assay for Asp RNA synthetase-1 from Mycobacterium tuberculosis; assay type: functional; parameters: scale not given: in the data most compounds retested in dose-response had high values; conditions: 30 µM
Could you please report measured Percent Effect for the items listed next?
# output: bare number, implied unit %

Exercise: Item under review: COc1ccc(CNC(=O)NC(C)Cn2cccn2)cc1O (centres undefined) . Reported Percent Effect?
Key: -1.61

Exercise: Item under review: CCN(CCn1cccn1)Cc1nc(-c2cccs2)oc1C . Reported Percent Effect?
Key: -0.251

Exercise: Item under review: CCn1ccnc1CN1CCC(CNC(=O)c2ccc(C)nc2)C1 (centres undefined) . Reported Percent Effect?
Key: -0.565

Exercise: Item under review: Cn1ncc2c(=O)[nH]c(CN3CCCC3Cc3ccccc3)nc21 (centres undefined) . Reported Percent Effect?
Key: 2.98

Exercise: Item under review: COc1cc(C)nc(N2CCN(C(=O)CCc3cscn3)CC2)n1 . Reported Percent Effect?
Key: -2.13

Exercise: Item under review: O=C(CN1CC(n2cccn2)C1)NCCCc1ccccc1 . Reported Percent Effect?
Key: 0

Exercise: Item under review: Cc1ccccc1N1CC2(CCN(S(=O)(=O)C3CC3)C2)CC1=O (centres undefined) . Reported Percent Effect?
Key: -1.07

Exercise: Item under review: COc1cc(N2C[C@@H]3COC[C@]3(COc3cccnc3)C2)ncn1 . Reported Percent Effect?
Key: -3.68

Exercise: Item under review: CCOc1nnc(CN(C)C2CCCN(c3cccnn3)C2)s1 (centres undefined) . Reported Percent Effect?
Key: 3.86

Exercise: Item under review: Clc1ccccc1CN1CCc2nc(C3CCCCN3)ncc2C1 (centres undefined) . Reported Percent Effect?
Key: 1.4

Exercise: Item under review: CCN(Cc1ccc(OC)c(F)c1)C(=O)c1ccc(C)[nH]c1=O . Reported Percent Effect?
Key: -0.589

Exercise: Item under review: O=C1CO[C@@H]2CN(Cc3cccs3)C[C@H]2N1Cc1ccncc1 . Reported Percent Effect?
Key: 9.56

Exercise: Item under review: CCN(Cc1cccc(Cl)c1)Cn1nc(C)c2c(C)onc2c1=O . Reported Percent Effect?
Key: -2.62

Exercise: Item under review: Cc1ccc(CNC(=O)CN2C=Nc3ccccc3S2(=O)=O)s1 . Reported Percent Effect?
Key: -0.759

Exercise: Item under review: COc1ccc(CN2CCn3cc(CN4CCCCC4)nc3C2)cc1 . Reported Percent Effect?
Key: 4.3

Exercise: Item under review: CN(Cc1ccc(N2CCCCC2)cc1)Cc1noc(C(C)(C)C)n1 . Reported Percent Effect?
Key: 1.93

Exercise: Item under review: O=C(CCc1nccs1)N1CCN(c2ncccn2)CC1 . Reported Percent Effect?
Key: -0.577

Exercise: Item under review: CCOCC1CN(C(=O)c2cccn2C)Cc2cnn(CC3CC3)c21 (centres undefined) . Reported Percent Effect?
Key: 5.55

Exercise: Item under review: CC(=O)NC(C)(C)C(=O)Nc1ncc(Cc2ccc(C)c(F)c2)s1 . Reported Percent Effect?
Key: -1.27

Exercise: Item under review: Cc1cc(C(F)(F)F)nn1C(C)C(=O)Nc1ccncc1 (centres undefined) . Reported Percent Effect?
Key: -0.755

Exercise: Item under review: Cc1noc(CN2CCN(Cc3cccs3)CC2)n1 . Reported Percent Effect?
Key: -1.85

Exercise: Item under review: Cc1cc(-c2cnn(CCNC(=O)C3CCCO3)c2C2CC2)on1 (centres undefined) . Reported Percent Effect?
Key: -4.09

Exercise: Item under review: CC(C)N(C)Cc1nnc2n1CCCN(C(=O)c1ccco1)C2 . Reported Percent Effect?
Key: 1.27

Exercise: Item under review: Cc1ccccc1CNc1nc(O)cc(C2CC(=O)N(C)C2)n1 (centres undefined) . Reported Percent Effect?
Key: -2.9

Exercise: Item under review: O=C(NCN1CCc2ccccc2C1)c1cnccn1 . Reported Percent Effect?
Key: 8.37

Exercise: Item under review: Cc1nn2c(N3CCC(O)CC3)cc(-c3ccccc3)nc2c1C . Reported Percent Effect?
Key: 1.19

Exercise: Item under review: O=C(NCCNc1ncccn1)C1CC(=O)N(CC(F)(F)F)C1 (centres undefined) . Reported Percent Effect?
Key: -6.31

Exercise: Item under review: COCCN1CCN(Cc2cccc(OCC(N)=O)c2)CC1C (centres undefined) . Reported Percent Effect?
Key: -6.54

Exercise: Item under review: CNC(=O)C(NC(=O)c1nccn2ccnc12)c1ccc(F)c(F)c1 (centres undefined) . Reported Percent Effect?
Key: 0.0141

Exercise: Item under review: CNC(=O)N1CC[C@H]2N(C)CC[C@@]2(C(=O)Nc2ccccc2)CC1 . Reported Percent Effect?
Key: -8.12

Exercise: Item under review: COCCN1CC[C@@H]2OC[C@H](C(=O)NCc3cccs3)C[C@@H]2C1 . Reported Percent Effect?
Key: 2.37

Exercise: Item under review: Cc1ccc(CN(C)C(=O)CN2CCOC(Cn3cncn3)C2)o1 (centres undefined) . Reported Percent Effect?
Key: 2.6

Exercise: Item under review: Cc1nc(NCc2cccnc2)c2c(n1)c(C)nn2C . Reported Percent Effect?
Key: 10.4

Exercise: Item under review: COc1ccc(C(=O)N2C[C@@H](CN3CCOCC3)[C@@H](CO)C2)c(C)c1 . Reported Percent Effect?
Key: -0.54

Exercise: Item under review: Cc1ccc(Cn2ccc(NS(C)(=O)=O)n2)cc1 . Reported Percent Effect?
Key: 2.05

Exercise: Item under review: Cc1cc(C(=O)N2CCCCC2C)ccc1NCCCO (centres undefined) . Reported Percent Effect?
Key: -5.49

Exercise: Item under review: O=S1(=O)CCN(Cc2cccnc2)[C@H]2CCN(c3ncccn3)CC[C@H]21 . Reported Percent Effect?
Key: 1.96

Exercise: Item under review: COc1ccccc1CC1CCCN(CC(=O)N2CCOCC2)C1 (centres undefined) . Reported Percent Effect?
Key: -1.41

Exercise: Item under review: CCc1nc2n(n1)CC(NCc1nc(C)ccc1O)CC2 (centres undefined) . Reported Percent Effect?
Key: -1.83

----------
Could you please report measured Percent Effect for the items listed next?
target: Aspartate--tRNA(Asp/Asn) ligase (Mycobacterium tuberculosis (strain ATCC 25618 / H37Rv)) (UniProt P9WFW3); test: Assay for Asp RNA synthetase-1 from Mycobacterium tuberculosis; assay type: functional; set-up: scale not given: in the data most compounds retested in dose-response had high values; settings: 30 µM

Exercise: Item under review: Cc1cccc(NC(=O)Cn2ncc(SCC(N)=O)c(Cl)c2=O)c1C . Reported Percent Effect?
Key: -2.73%

Exercise: Item under review: O=C(NC1CC1)N1CCc2ncnc(-c3ccncc3)c2CC1 . Reported Percent Effect?
Key: 5.15%

Exercise: Item under review: O=C(c1cnc(C2CC2)s1)N1CCCC(n2cccn2)C1 (centres undefined) . Reported Percent Effect?
Key: -2.52%

Exercise: Item under review: C[C@@H]1CN(C(=O)c2ccc(C#N)nc2)C[C@@]1(O)C1CC1 . Reported Percent Effect?
Key: 0.0335%

----------
Molecular target: Aspartate--tRNA(Asp/Asn) ligase (Mycobacterium tuberculosis (strain ATCC 25618 / H37Rv)) (UniProt P9WFW3)
Sequence (whole entry): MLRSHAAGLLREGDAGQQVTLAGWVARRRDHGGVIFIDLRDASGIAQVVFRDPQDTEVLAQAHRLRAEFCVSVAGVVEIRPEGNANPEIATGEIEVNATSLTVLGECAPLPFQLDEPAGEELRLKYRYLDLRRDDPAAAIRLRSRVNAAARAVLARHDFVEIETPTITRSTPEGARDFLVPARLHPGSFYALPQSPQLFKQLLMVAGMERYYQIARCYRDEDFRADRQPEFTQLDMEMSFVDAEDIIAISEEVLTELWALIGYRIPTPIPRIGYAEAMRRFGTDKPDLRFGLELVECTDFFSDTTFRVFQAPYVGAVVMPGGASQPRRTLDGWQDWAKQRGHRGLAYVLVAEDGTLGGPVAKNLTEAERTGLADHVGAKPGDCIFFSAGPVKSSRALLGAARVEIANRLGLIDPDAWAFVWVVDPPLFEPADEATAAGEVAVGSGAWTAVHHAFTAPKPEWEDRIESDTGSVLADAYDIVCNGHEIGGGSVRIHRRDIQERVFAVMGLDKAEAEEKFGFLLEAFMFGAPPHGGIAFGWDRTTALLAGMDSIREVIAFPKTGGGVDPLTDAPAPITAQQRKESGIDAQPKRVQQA
Assay: Assay for Asp RNA synthetase-1 from Mycobacterium tuberculosis
Assay type: functional
Design: scale not given: in the data most compounds retested in dose-response had high values
Conditions: 30 µM
Outcome Measure: Percent Effect (%)
# output: bare number, implied unit %

Exercise: Item under review: COC(=O)C(C)(C)NC(=O)C1CC(=O)N(C2CCCC2)C1 (stereo unspecified) . Reported Percent Effect?
Key: 0.137

Exercise: Item under review: Cc1nc(CN2CCC(N(C)Cc3noc(C4CC4)n3)C2)oc1C (stereo unspecified) . Reported Percent Effect?
Key: 1.48

Exercise: Item under review: O=C(NCCCn1cccn1)N1CCCC1c1ccncc1 (stereo unspecified) . Reported Percent Effect?
Key: -0.931

Exercise: Item under review: CCc1nnc2n1CCN(C(=O)c1cnc3ccccc3n1)C2 . Reported Percent Effect?
Key: -4.57

Exercise: Item under review: Cc1ccc(CC(=O)N2CCc3nnc(N(C)C)cc3C2)cn1 . Reported Percent Effect?
Key: 0.322

Exercise: Item under review: COCC(O)CNC(=O)c1coc(COc2ccc3sc(C)nc3c2)n1 (stereo unspecified) . Reported Percent Effect?
Key: 5.55

Exercise: Item under review: CN(C)C(=O)N1CCOCC2(CCN(c3ncccn3)C2)C1 (stereo unspecified) . Reported Percent Effect?
Key: 0.466

Exercise: Item under review: CSCC(C)(O)CNC(=O)c1cc(Br)ccc1Cl (stereo unspecified) . Reported Percent Effect?
Key: -0.23

Exercise: Item under review: CNC(=O)[C@@]12CCCN(c3ncccn3)[C@@H]1CN(C(=O)NC(C)C)C2 . Reported Percent Effect?
Key: 1.62

Exercise: Item under review: Cc1cnc2n(c1=O)CC(C(=O)Nc1cccc3cccnc13)CS2 (stereo unspecified) . Reported Percent Effect?
Key: 16.3

Exercise: Item under review: CC(C)c1nn(CC(=O)N2CCCCC2)c(=O)c2c1cnn2C(C)(C)C . Reported Percent Effect?
Key: -5.41

Exercise: Item under review: CCNC(c1ccc(OC)cc1)c1cccnc1 (stereo unspecified) . Reported Percent Effect?
Key: 1.53

Exercise: Item under review: COc1cc(CN(C(=O)Nc2cccnc2OC)C2CC2)ccc1O . Reported Percent Effect?
Key: -2.28

Exercise: Item under review: N#CCCN(C(=O)CN1CCCC1C1CCCCC1)c1ccccc1 (stereo unspecified) . Reported Percent Effect?
Key: 8.01

Exercise: Item under review: N#Cc1c(F)cccc1N1CCC(NS(=O)(=O)c2cccs2)CC1 . Reported Percent Effect?
Key: 10.6

Exercise: Item under review: Cc1cn2c(n1)CCC(NC(=O)c1ccc(CS(C)(=O)=O)cc1)C2 (stereo unspecified) . Reported Percent Effect?
Key: -0.233

Exercise: Item under review: Cc1nnc(NCc2ccccc2Cl)c(C#N)c1C . Reported Percent Effect?
Key: 16.3

Exercise: Item under review: c1cc(NC2CC3(CCN(Cc4cc[nH]n4)C3)C2)ncn1 (stereo unspecified) . Reported Percent Effect?
Key: -4.78

Exercise: Item under review: CC(C)c1nnc2n1CCN(C(=O)c1ccnc(N(C)C)c1)C2 . Reported Percent Effect?
Key: -5.48

Exercise: Item under review: CC(C)OCCCNC(=O)CS(=O)(=O)Cc1ccc(Cl)c(Cl)c1 . Reported Percent Effect?
Key: 5.22

Exercise: Item under review: CS(=O)(=O)N1CCC(C(=O)NC(Cc2ccsc2)c2ccccn2)CC1 (stereo unspecified) . Reported Percent Effect?
Key: -1.32

Exercise: Item under review: Cc1ccc(C(=O)N2CCC3(CCC(=O)N(CC(N)=O)C3)CC2)c(O)c1 . Reported Percent Effect?
Key: -0.585

Exercise: Item under review: Cn1ccc(CN2CCCC2c2ccc3c(c2)OCCCO3)cc1=O (stereo unspecified) . Reported Percent Effect?
Key: -1.54

Exercise: Item under review: Cc1nc(N2CCCC2)nc2c1CCN(C(=O)CC1CC1)CC2 . Reported Percent Effect?
Key: -1.6

Exercise: Item under review: CCc1n[nH]c(C2CN(C(=O)c3ccsc3)CCO2)n1 (stereo unspecified) . Reported Percent Effect?
Key: -7.75

Exercise: Item under review: CCc1ccc(C(=O)Nc2ccc(CC3CC(=O)NC3=O)cc2)cc1 (stereo unspecified) . Reported Percent Effect?
Key: 7.7

Exercise: Item under review: O=C(Cc1ccsc1)N1CCC(n2nc(-c3ccco3)ccc2=O)CC1 . Reported Percent Effect?
Key: -0.938

Exercise: Item under review: O=C(c1cccs1)N1CCC(Cn2nc(-c3ccco3)ccc2=O)CC1 . Reported Percent Effect?
Key: -3.23

Exercise: Item under review: O=C(c1cscn1)N1CCC2(CCN(Cc3nccs3)C2)CC1 . Reported Percent Effect?
Key: 1.85

Exercise: Item under review: COc1ccc(C(C(=O)O)N2CCCN(C3CCCCC3)CC2)cn1 (stereo unspecified) . Reported Percent Effect?
Key: 2.16

Exercise: Item under review: O=C(CCN1CCC(C(=O)c2cc(F)ccc2F)CC1)NC1CC1 . Reported Percent Effect?
Key: 1.41

Exercise: Item under review: CNS(=O)(=O)c1cccc(C(C)NCc2ccccc2)c1 (stereo unspecified) . Reported Percent Effect?
Key: -1.42

Exercise: Item under review: O=c1nc(SCc2ccncc2)c2c(n1CCO)CCCC2 . Reported Percent Effect?
Key: -6.81

Exercise: Item under review: Cc1ccc(CNC(=O)N2CCCCC2CCNS(C)(=O)=O)cc1 (stereo unspecified) . Reported Percent Effect?
Key: 1.04

Exercise: Item under review: CCn1nnc2cc(C(=O)N3CCCC3Cn3cc(C)cn3)ccc21 (stereo unspecified) . Reported Percent Effect?
Key: -2.54

Exercise: Item under review: O=C(c1ccccc1OCC1CC1)N1CCCC(n2ccnc2)C1 (stereo unspecified) . Reported Percent Effect?
Key: 6.48

Exercise: Item under review: COc1ncccc1C(=O)N1CCN(C(=O)Cc2ccccn2)CC1 . Reported Percent Effect?
Key: 4.26

Exercise: Item under review: CN(CC1COc2ccccc2O1)C(=O)NCCCn1cncn1 (stereo unspecified) . Reported Percent Effect?
Key: 1.57

Exercise: Item under review: CC1CN(Cc2nccn2C)CCN1c1ccc2nncn2n1 (stereo unspecified) . Reported Percent Effect?
Key: -6.07

Exercise: Item under review: COc1c(CNCc2cccc(CN(C)C)c2)c(C)nn1C . Reported Percent Effect?
Key: -1.85

Exercise: Item under review: CCOC(=O)c1c(NC(=O)CN2CCN(C(C)=O)CC2)sc2c1CCC2 . Reported Percent Effect?
Key: -3.95
